- Assayed system: human melanocortin 4 receptor (MC4R) (human, UniProt P32245 1-332)
- Sequence (P32245 whole entry): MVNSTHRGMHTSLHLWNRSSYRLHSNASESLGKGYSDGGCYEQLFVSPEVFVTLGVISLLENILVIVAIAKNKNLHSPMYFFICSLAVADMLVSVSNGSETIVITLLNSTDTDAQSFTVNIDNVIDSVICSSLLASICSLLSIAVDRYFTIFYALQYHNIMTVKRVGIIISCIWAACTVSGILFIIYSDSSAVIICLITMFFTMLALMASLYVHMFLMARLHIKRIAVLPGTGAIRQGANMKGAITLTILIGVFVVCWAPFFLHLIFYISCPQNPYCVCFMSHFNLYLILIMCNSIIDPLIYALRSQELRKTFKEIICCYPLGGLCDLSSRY
- Assay procedure: cell-based or functional assay
Positions of bridges follow the written chain, without caps; N, C: chain ends. Non-standard residues stand in square brackets, D forms with d. No end group written: not given here. d2Nal = N[C@H](Cc1ccc2ccccc2c1)C(=O)O; Hyp = O=C(O)[C@@H]1C[C@@H](O)CN1; Nle = CCCC[C@H](N)C(=O)O
Assay endpoint: Max Activation % (%)

Study these solved cases before continuing.
[[record]]
binder = "Ac-[Nle]D[Hyp][d2Nal]RWPK[dV][dP]-NH2 (lactam 2-8; SMILES CCCC[C@H](NC(C)=O)C(=O)N[C@H]1CC(=O)NCCCC[C@@H](C(=O)N[C@@H](C(=O)N2CCC[C@@H]2C(N)=O)C(C)C)NC(=O)[C@@H]2CCCN2C(=O)[C@H](Cc2c[nH]c3ccccc23)NC(=O)[C@H](CCCNC(=N)N)NC(=O)[C@@H](Cc2ccc3ccccc3c2)NC(=O)[C@@H]2C[C@@H](O)CN2C1=O) [D4]"
reported_value = 21

[[record]]
binder = "Ac-[Nle]DPH[d2Nal]RWK[dP][dV]-NH2 (lactam 2-8; SMILES CCCC[C@H](NC(C)=O)C(=O)N[C@H]1CC(=O)NCCCC[C@@H](C(=O)N2CCC[C@@H]2C(=O)N[C@@H](C(N)=O)C(C)C)NC(=O)[C@H](Cc2c[nH]c3ccccc23)NC(=O)[C@H](CCCNC(=N)N)NC(=O)[C@@H](Cc2ccc3ccccc3c2)NC(=O)[C@H](Cc2c[nH]cn2)NC(=O)[C@@H]2CCCN2C1=O) [D5]"
reported_value = 41.5


I = LDPWRWKVP (lactam 2-7) [C3]
II = IPFFRWVP [B5]
Inquiry: Hey, between I and II which has a smaller measured Max Activation %? Label of pick, please.
Reply text: II
(II: -0.16%, I: 8.07%)
